experiment: chemical genetic growth profiling, strain panel (AID 1159580);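 further: tested at 20 µM; growth read once vehicle control cultures reached saturation at 30 °C; 1 = growth at the plate median or of vehicle wells; lower values mean less growth of the strain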; conditions: S. cerevisiae deletion strains, growth OD, locus YCL061C, strain MRC1, stronger effect = lower value
The whole screen tested about 5,500 compounds, of which about 2,000 (36%) were called active. Another 18% or so got no clear call; they are omitted. The list shows a part of the results.
PARAMETER MEASURED: normalized growth
Reply with the value as a number alone.

Problem: // query normalized growth value for entry O=C1C[C@@H](c2ccc(O)cc2)Oc2cc(O)cc(O)c21
Result: 0.979

Problem: // same read-out, input: Cc1cccc(Nc2cc(Cl)nc(SCC(=O)O)n2)c1C
Result: 0.984

Problem: Further, for Cc1cc(C(C)(C)CC(C)(C)C)ccc1OCCOCC[N+](C)(C)Cc1ccccc1 ?
Result: 0.0639

Problem: Subsequent entry: O=C(O)c1ccccc1OP(=O)(O)O
Result: 1

Problem: Also CC1(C)C2CC[C@]3(C)C(C(=O)C=C4[C@H]5C[C@@](C)(C(=O)O)CC[C@]5(C)CC[C@]43C)[C@@]2(C)CC[C@@H]1O (stereo partly specified) , if possible.
Result: 0.96

Problem: Item: CN(C)/C=C1\C(=O)c2ccccc2N(C)S1(=O)=O
Result: 0.999

Problem: For O=C(O)CSCC(=O)N1CCc2c([nH]c3ccccc23)C1C(F)(F)F (stereo unspecified) then?
Result: 1.04

Problem: CC(=O)CC(=O)CCC(=O)O , same question.
Result: 1.02

Problem: // same read-out, input: Cc1c(Cl)cccc1SCC(=O)O
Result: 0.989

Problem: Same thing, different compound: C[CH2][Hg][S]c1ccccc1C(=O)O
Result: 0.0624

Problem: Please do the same for COc1ccc([C@@H]2CC(=O)c3c(O)cc(O)cc3O2)cc1O as well.
Result: 0.978
